The values you see were collected from patent US9902725B2.

I'd be grateful if you could share measured Mouse microsomes (% Cpd. remaining at 60 min) for these entries.
TEST DESCRIPTION: Microsomal stability, mouse microsomes (CEREP)
Format: in vitro ADME
EXPERIMENTAL CONDITIONS: 0.1 μM, 0.1 mg/mL microsomal protein
Give bare numbers, in %.

COMPOUND	REPORTED MEASUREMENT
O=C(O)CCc1c[nH]c2ccc(CC(=O)NC(c3ccccc3)c3ccc(C(F)(F)F)cc3N3CCCC3)cc12 (stereo not shown) [Cpd. 48]	53
Cc1ccc(C(NC(=O)Cc2ccc3[nH]cc(CCC(=O)O)c3c2)c2ccccc2)c(N2CCCCC2)c1 (stereo not shown) [Cpd. 77]	31
O=C(O)CCc1c[nH]c2ccc(CC(=O)NC(c3ccccc3)c3ccccc3N3CCCCC3)cc12 (stereo not shown) [Cpd. 1]	35
CC(C)CC(NC(=O)Cc1ccc2[nH]cc(CCC(=O)O)c2c1)c1ccccc1N1CCCCC1 (stereo not shown) [Cpd. 29]	20
O=C(O)CCc1c[nH]c2ccc(CC(=O)NC(c3ccccc3)c3ccc(Br)cc3N3CCCC3)cc12 (stereo not shown) [Cpd. 50]	38
Cc1ccc(C(NC(=O)Cc2ccc3[nH]cc(CCC(=O)O)c3c2)c2ccccc2)c(N2CCCC2)c1 (stereo not shown) [Cpd. 5]	50

Kindly review the next compound as well.
Query: Given Cc1ccc(C(NC(=O)Cc2ccc3oc(C(O)c4c(C)noc4C)cc3c2)c2ccccc2)c(C)c1 (single isomer, unassigned) [Cpd. T-4, reference compound] , state its recorded Mouse microsomes (% Cpd. remaining at 60 min).
Reply: 0

###

TARGET OR SYSTEM: CYP2C19 (Homo sapiens, UniProt P33261)
Sequence (P33261 whole entry): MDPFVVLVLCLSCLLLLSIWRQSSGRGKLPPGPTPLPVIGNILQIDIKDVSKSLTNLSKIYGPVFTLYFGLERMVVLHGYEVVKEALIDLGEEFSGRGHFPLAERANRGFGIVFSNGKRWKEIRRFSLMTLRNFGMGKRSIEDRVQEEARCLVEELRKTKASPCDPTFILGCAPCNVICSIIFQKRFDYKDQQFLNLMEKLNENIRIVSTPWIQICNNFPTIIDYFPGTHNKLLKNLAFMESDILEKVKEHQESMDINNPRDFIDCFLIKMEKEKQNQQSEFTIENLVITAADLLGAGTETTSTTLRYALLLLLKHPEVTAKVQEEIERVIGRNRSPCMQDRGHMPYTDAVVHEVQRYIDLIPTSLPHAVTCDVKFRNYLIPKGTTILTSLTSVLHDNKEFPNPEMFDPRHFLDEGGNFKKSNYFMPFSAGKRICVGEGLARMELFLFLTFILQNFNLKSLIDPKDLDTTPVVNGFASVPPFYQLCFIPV
TEST DESCRIPTION: CYP inhibition CYP2C19 (CEREP)
Assay type: in vitro ADME
EXPERIMENTAL CONDITIONS: human, recombinant CYP2C19, probe 3-cyano-7-ethoxycoumarin, single concentration (typically 10 μM), read-out: CYP 2C19 (% inhibition of Control)
Experimental: All the assays were conducted at CEREP (CEREP, France and USA). Metabolic compound stability was tested in human (CEREP, Ref 607) and mouse (CEREP, Ref: 806) microsomes. […] Briefly, CEREP's CYP inhibition assay uses traditional probe substrates, which are specific to individual CYP isoforms. […] Compounds were tested at single concentrations (typically 10 μM) and data were expressed as percent of control inhibition.
I'd be grateful if you could share measured inhibition at 10 µM for these entries.
Answers are plain numbers, in %.

Use the examples below as a reference point.
> print(dat)
                                   molecule  reported.measurement
1  O=C(O)CCc1c[nH]c2ccc(CC(=O)NC(c3ccccc3)c3ccc(C(F)(F)F)cc3N3CCCC3)cc12 (stereo not shown)                    35
2  Cc1ccc(C(NC(=O)Cc2ccc3[nH]cc(CCC(=O)O)c3c2)c2ccccc2)c(N2CCCCC2)c1 (stereo not shown)                  28.1
3  CC(C)CC(NC(=O)Cc1ccc2[nH]cc(CCC(=O)O)c2c1)c1ccccc1N1CCCCC1 (stereo not shown)                  14.1

Quick request: inhibition at 10 µM for each listed item, please.
1. O=C(O)CCc1c[nH]c2ccc(CC(=O)NC(c3cccc(F)c3)c3ccccc3N3CCCCC3)cc12 (stereo not shown)
2. O=C(O)CCCc1c[nH]c2ccc(CC(=O)NC(c3ccccc3)c3ccccc3N3CCCCC3)cc12 (stereo not shown)
3. O=C(O)CCc1c[nH]c2ccc(CC(=O)NC(c3ccccc3)c3ccccc3N3CCCCC3)cc12 (stereo not shown)

Reply:
58.8
32.2
13

Query: Given Cc1ccc(C(NC(=O)Cc2ccc3[nH]cc(CCC(=O)O)c3c2)c2ccccc2)c(N(C)C)c1 (stereo not shown) , state its recorded inhibition at 10 µM.
Reply: 31.2
